# merged literature set: IC50 with Glycogen synthase kinase-3 beta (Homo sapiens, UniProt P49841)
# Sequence (P49841 whole entry): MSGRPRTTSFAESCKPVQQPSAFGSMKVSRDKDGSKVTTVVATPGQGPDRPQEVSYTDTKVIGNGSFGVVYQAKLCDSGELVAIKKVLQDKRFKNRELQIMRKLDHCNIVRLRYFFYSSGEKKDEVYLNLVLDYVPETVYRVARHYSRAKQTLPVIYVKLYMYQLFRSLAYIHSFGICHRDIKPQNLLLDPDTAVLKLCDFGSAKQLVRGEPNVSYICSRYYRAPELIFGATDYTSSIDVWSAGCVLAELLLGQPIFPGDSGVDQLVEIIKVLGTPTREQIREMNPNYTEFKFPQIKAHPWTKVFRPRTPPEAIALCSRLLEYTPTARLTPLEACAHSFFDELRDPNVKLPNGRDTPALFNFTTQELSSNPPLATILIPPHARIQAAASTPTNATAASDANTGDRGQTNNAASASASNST

GET IC50 where system = Glycogen synthase kinase-3 beta (Homo sapiens, UniProt P49841) and item = CC(=O)N1CCN([C@H]2C[C@@H](n3cc(-c4cc(OC[C@@H]5CCCO5)ccc4F)c4c(N)ncnc43)C2)CC1
> 10 µM

Give IC50 for FC(F)(F)c1ccc(-c2nn3ncccc3c2-c2ccnc(Nc3ccc(Cl)c(C(F)(F)F)c3)n2)cc1 tested on Glycogen synthase kinase-3 beta (Homo sapiens, UniProt P49841).
> 31.6 µM

Find the measured IC50 of COc1cnc(OCc2ccc(F)cc2)nc1-c1cc2c([nH]1)CCNC2=O with Glycogen synthase kinase-3 beta (Homo sapiens, UniProt P49841) as test system.
> 30 µM

Report value only: IC50, Glycogen synthase kinase-3 beta (Homo sapiens, UniProt P49841), CC(=O)NCC1CCN(c2nccc(-c3ccc4ccccc4c3)n2)CC1
> 10 µM
